# System: Oryza sativum (ORYSA)
# method-notes: Post-emergence herbicidal evaluation, rice
# Type: in vivo
# assay-setup: dose 0.4 kg/ha, rated 2 to 4 weeks after treatment
# Experimental: [table] […] These acetone solutions are diluted with water and the resulting formulations applied at dosage levels equivalent of about 0.03 to 0.4 kg per hectare of test compound per pot. After spraying the plants are placed on greenhouse benches and are cared for in the usual manner, commensurate with conventional greenhouse practices. From 2 to 4 weeks after treatment, the seedling plants are examined and rated according to the rating system provided above. […]
readout: ORYSA rating

For orientation, consider the following solved cases.
Cc1cc(OCC(F)(F)C(F)F)nc(Oc2cc(C(F)(F)F)nn2C)c1: 1 (1 - Trace effect)
Cc1cc(OCC(F)(F)C(F)(F)F)nc(Oc2cc(C(F)(F)F)nn2C)c1: 3 (3 - Moderate effect)
CC(Cl)=CCOc1cc(C)cc(Oc2cc(C(F)(F)F)nn2C)n1: 4 (4 - Injury)
COc1cc(OCC(F)(F)C(F)F)nc(Oc2cc(C(F)(F)F)nn2C)c1: 4 (4 - Injury)
Cc1cc(OC=CCC(F)(F)F)nc(Oc2cc(C(F)(F)F)nn2C)c1: 3 (3 - Moderate effect)
Cc1cc(OCC(F)(F)C(F)(F)C(F)(F)C(F)F)nc(Oc2cc(C(F)(F)F)nn2C)c1: 2 (2 - Slight effect)
Cc1cc(OCC=C(Cl)Cl)nc(Oc2cc(C(F)(F)F)nn2C)c1: 4 (4 - Injury)

Q. // fetch ORYSA rating given entry `Cc1cc(OC/C=C/C(F)(F)F)nc(Oc2cc(C(F)(F)F)nn2C)c1`
A. 5 (5 - Definite injury)
